The values you see were collected from patent US6806229B1.

System: Oryza sativa
method-notes: Phytotoxicity to rice (direct-seeded and transplanted) in paddy condition, greenhouse pot test
Type: in vivo
condition-info: 80 g/ha; direct-seeded rice, treated 5 days after sowing; visual rating after two weeks, 0 = none, 100 = complete death
Outcome label depends on Phytotoxicity, Oryza sativa, Seed relative to 30%: at/above gives 1 (yes), below gives 0 (no).

Use the examples below as a reference point.
COc1cc(OC)nc(NC(=O)NS(=O)(=O)c2cccnc2[C@@H](OC(C)=O)[C@H](C)F)n1 [Standard Compound D, reference compound] | 1 (yes)
COc1cc(OC)nc(NC(=O)NS(=O)(=O)c2ccccc2[C@@H](OC(C)=O)[C@H](C)F)n1 [Standard Compound B, reference compound] | 1 (yes)
COc1cc(OC)nc(NC(=O)NS(=O)(=O)c2ccccc2[C@@H](O)[C@H](C)F)n1 [Standard Compound A, reference compound] | 1 (yes)
COc1cc(OC)nc(NC(=O)NS(=O)(=O)c2cccnc2[C@@H](O)[C@H](C)F)n1 [Standard Compound C, reference compound] | 1 (yes)

For this compound, is measured Phytotoxicity, Oryza sativa, Seed 30% or higher? COCC(=O)O[C@H](c1nccc(Br)c1S(=O)(=O)NC(=O)Nc1nc(OC)cc(OC)n1)[C@H](C)F 0 (no)
